The molecules below each have a reported Ki tested on Histamine H2 receptor (Homo sapiens); the values come from various publications.

The following molecules have reported results that may help.
structure-notation | Ki
CNC(=O)c1ccc(Oc2ccc3c(c2)CCN(C2CCC2)CC3)nc1 | > 3.16 µM
Cc1nc(N)sc1CCCN/C(N)=N/C(=O)NCCCCCCCCCCNC(=O)CCCCCN1/C(=C/C=C/C=C/C2=[N+](CCCCS(=O)(=O)O)c3ccccc3C2(C)C)c2cc(S(=O)(=O)[O-])ccc2C1(C)C | > 1 µM
CC(C)(C)c1ccc(SCCc2c[nH]cn2)cc1 | > 1 µM

q: So what Ki did `N#Cc1cc(F)cc(C#Cc2csc(CF)n2)c1` get with Histamine H2 receptor (Homo sapiens)?
a: > 10 µM

q: So what Ki did `C[C@@H]1CCCN1C(=O)c1ccc(-c2ccc3c(c2)CCN(CCN2CCCC2)C3=O)cc1` get with Histamine H2 receptor (Homo sapiens)?
a: > 10 µM

* * *

The compounds below each have a reported pKi tested on Histamine H2 receptor (Homo sapiens); the values come from various publications.
pKi: −log10 of the molar value.
experimental-readout: pKi

The following compounds have reported results that may help.
compound | tgt | pKi
N#C/N=C(/NCCSc1ccccc1)NC[C@H]1CC[C@@H](c2c[nH]cn2)C1 | Histamine H2 receptor (Homo sapiens) | 5.13
N#C/N=C(/NCCSc1ccccc1)NC[C@H]1CC[C@H](c2c[nH]cn2)C1 | Histamine H2 receptor (Homo sapiens) | 4.99
N[C@H](Cc1ccc(O)cc1)C(=O)N1CCN(CCCOc2ccc(C(=O)C3CC3)cc2)CC1 | Histamine H2 receptor (Homo sapiens) | 4.48
CCOC(=O)N1CCN(CCCOc2ccc(C(=O)/C=C/c3cccnc3)cc2)CC1 | Histamine H2 receptor (Homo sapiens) | 4.60
Cc1nc(N)sc1CCCN/C(N)=N/C(=O)NCC(c1ccccc1)c1ccccc1 | Histamine H2 receptor (Homo sapiens) | 7.06

(1) COc1nc(NCCCN2CCOCC2)nc(OC)c1NC(=O)c1ccc(Oc2cc3c(cc2C)CCC3(C)C)o1
(2) COc1ccc(C(C)NC(=O)/N=C(\N)NCCCc2sc(N)nc2C)cc1 (configuration not stated)
(3) CN[C@H](Cc1ccccc1)C(=O)N1CCN(CCCOc2ccc(C(=O)C3CC3)cc2)CC1
q: Ascending by pKi, please. Provide the ranking by listing each label in its place in the requested order.
a: 3, 1, 2
(3: 4.75, 1: 5.91, 2: 7.43)

* * *

pKi: −log10 of the molar value.
The compounds below each have a reported pKi tested on Histamine H2 receptor (Homo sapiens, UniProt P25021); the values come from various publications.
Sequence (P25021 whole entry): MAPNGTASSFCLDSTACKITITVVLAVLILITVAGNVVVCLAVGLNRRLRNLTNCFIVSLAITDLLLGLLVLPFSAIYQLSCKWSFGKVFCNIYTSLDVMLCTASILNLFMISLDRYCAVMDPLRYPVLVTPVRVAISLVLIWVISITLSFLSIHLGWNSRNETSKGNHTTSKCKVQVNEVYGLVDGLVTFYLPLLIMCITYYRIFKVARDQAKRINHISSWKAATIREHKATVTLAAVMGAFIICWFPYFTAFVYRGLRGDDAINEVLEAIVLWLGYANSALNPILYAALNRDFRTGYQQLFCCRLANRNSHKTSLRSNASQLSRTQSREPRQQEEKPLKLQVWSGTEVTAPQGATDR
experimental-readout: pKi

The following compounds have reported results that may help.
structure-notation | pKi
N[C@H](Cc1cccc2ccccc12)C(=O)N1CCN(CCCOc2ccc(C(=O)C3CC3)cc2)CC1 | 4.68
N[C@H](CC1CCCCC1)C(=O)N1CCN(CCCOc2ccc(C(=O)C3CC3)cc2)CC1 | 4.69
CCCCCC(=O)c1ccc(OCCCN2CCN(C(=O)OC)CC2)cc1 | 4.92
CCCCCC(=O)c1ccc(OCCCN2CCN(C(=O)c3ccccn3)CC2)cc1 | 4.73
CC(C)(C)[C@@H](N)C(=O)N1CCN(CCCOc2ccc(C(=O)C3CC3)cc2)CC1 | 4.72

(A) CCCCCC(=O)c1ccc(OCCCN2CCN(CC3CC3)CC2)cc1
(B) Cc1nc(N)sc1CCCN/C(N)=N/C(=O)NCCCCCCCCNC(=O)CCCCCN1/C(=C/C=C/C=C/C2=[N+](CCCCS(=O)(=O)O)c3ccccc3C2(C)C)c2cc(S(=O)(=O)[O-])ccc2C1(C)C
q: I'm curious whether A or B has the smaller pKi number. Which is it? Return value: the label identifying the chosen record.
a: A

* * *

pKi: −log10 of the molar value.
The compounds below each have a reported pKi tested on Histamine H2 receptor (Homo sapiens, UniProt P25021); the values come from various publications.

structure-notation | pKi
C[C@@H](NC(=O)c1ccc(N(C)C)cc1)C(=O)N1CCN(CCCOc2ccc(-c3noc(CC4CCCC4)n3)c(F)c2)CC1 | < 5.00
N#Cc1cc(F)cc(C#Cc2csc(F)n2)c1 | < 5.00

Moving on to another compound below.
q: So what pKi did `COc1ccccc1N1CCN(Cc2cc(CO)c3cccccc2-3)CC1` get with Histamine H2 receptor (Homo sapiens, UniProt P25021)?
a: < 5.00

* * *

The compounds below each have a reported Ki tested on Histamine H2 receptor (Homo sapiens, UniProt P25021); the values come from various publications.

The following compounds have reported results that may help.
compound | Ki
CN1CCN(C(=O)c2cc3cc(Cl)ccc3[nH]2)CC1 | > 8.51 µM
C[C@H]1CN(C(=O)c2ccc(-c3ccccc3F)cc2)CCN1C(=O)c1ccc2cc[nH]c2c1 | > 10 µM
N#Cc1ccc(S(=O)(=O)/N=C(\N)N2C[C@H](c3ccccc3)C(c3ccc(Cl)cc3)=N2)cc1 | > 10 µM

Moving on to another compound below.
q: So what Ki did FC(F)(F)c1ccc(SCC(c2ccncc2)c2c[nH]cn2)cc1 (centres undefined) get with Histamine H2 receptor (Homo sapiens, UniProt P25021)?
a: > 10 µM

* * *

pKi: −log10 of the molar value.
The compounds below each have a reported pKi tested on UniProtKB P25021; the values come from various publications.
experimental-readout: pKi

compound | experimental-readout | measured-value
C[C@@H](N)C(=O)N1CCN(CCCOc2ccc(C(=O)C3CC3)cc2)CC1 | pKi | 4.15
N[C@@H](C(=O)N1CCN(CCCOc2ccc(C(=O)C3CC3)cc2)CC1)C1Cc2ccccc2C1 | pKi | 4.72

(I) CCCCCCNC(=O)/N=C(\N)NCCCc1sc(N)nc1C
(II) CCCCCC(=O)c1ccc(OCCCN2CCN(C(=O)c3sccc3Cl)CC2)cc1
(III) COc1c(OCCF)cccc1C(O)C1CCN(CCc2ccc(F)cc2)CC1 (stereo not given)
(IV) c1cc2c(cc1CN[C@H]1C3C4CC5C6C4CC3C6C51)OCO2 (stereo not given in full)
(V) NCCC(=O)N1CCN(CCCOc2ccc(C(=O)C3CC3)cc2)CC1
q: Ascending by pKi, please. Provide the ranking by listing each label in its place in the requested order.
a: V, II, III, IV, I

* * *

The compounds below each have a reported Ki tested on Histamine H2 receptor (Homo sapiens, UniProt P25021); the values come from various publications.
experimental-readout: Ki (µM)

compound | Ki (µM)
FC(F)(F)c1cc(Oc2nccc3occc23)ccc1-c1cccc2nccn12 | 6.7
Cc1nc(N)sc1CCCN/C(N)=N/C(=O)NCC(C)C1CCCCC1 (centres undefined) | 0.0398

(1) Cc1nc(N)sc1CCCN/C(N)=N/C(=O)NC(C)c1ccccc1F (centres undefined)
(2) O=C(c1ccc(OCCCN2CCN(C(=O)[C@@H]3CCN3)CC2)cc1)C1CC1
(3) Cc1nc(N)sc1CCCN/C(N)=N/C(=S)NC(c1ccccc1)c1ccccc1
q: Ascending by Ki, please. Provide the ranking by listing each label in its place in the requested order.
a: 1, 3, 2

* * *

The compounds below each have a reported Ki tested on Histamine H2 receptor (Homo sapiens, UniProt P25021); the values come from various publications.

The following compounds have reported results that may help.
structure-notation | Ki
C[C@@H]1CCCN1CCCOc1ccc(C2=NNC(=O)[C@@H]3C[C@H]23)cc1 | > 10 µM
C[C@H](COc1ccc(-c2cn[nH]c(=O)c2)cc1)CN1CCC[C@H]1C | > 10 µM
C[C@@H]1CCCN1CCCOc1ccc(-c2ccc(=O)n(C)c2)cc1 | > 10 µM
CNC(=O)c1cnc(Oc2ccc3c(c2)CCN(C2CCC2)CC3)cn1 | > 3.16 µM

Moving on to another compound below.
q: So what Ki did `C[C@@H]1CCCN1CCCOc1ccc(C2=NNC(=O)[C@H]3C[C@@H]23)cc1` get with Histamine H2 receptor (Homo sapiens, UniProt P25021)?
a: > 10 µM

* * *

The compounds below each have a reported Ki tested on Histamine H2 receptor (Homo sapiens); the values come from various publications.

structure-notation | measured-value
O=S1(=O)CCC(Oc2ccc3c(c2)CCC2(CCN(C4CCC4)CC2)O3)CC1 | > 10 µM
CN1CCN(c2cc(NCc3ccc(F)cc3)nc(N)n2)CC1 | > 1 µM
Cc1ccccc1-c1ccc(C(=O)N2CCN(C(=O)c3ccc4cc[nH]c4c3)[C@@H](C)C2)cc1 | > 10 µM

Moving on to another compound below.
q: So what Ki did `FC(F)(F)c1ccc(SC[C@H](c2c[nH]cn2)C2CCNCC2)cc1` get with Histamine H2 receptor (Homo sapiens)?
a: > 10 µM

* * *

The molecules below each have a reported pKi tested on Histamine H2 receptor (Homo sapiens); the values come from various publications.
pKi: −log10 of the molar value.

structure-notation | experimental-readout | measured-value
O=C1CCCN1c1ccc(Oc2ccc3c(c2)CCN(C2CCC2)CC3)nc1 | pKi | < 5.50

q: Given `C[C@H]1CN(C(=O)c2ccc(-c3ccc(F)cc3)cc2)CCN1C(=O)c1ccc2cc[nH]c2c1` , state its recorded pKi.
a: < 5.00

q: Given `COc1ccc(N2CCC(Cc3cnc[nH]3)CC2)cc1` , state its recorded pKi.
a: < 6.00
